These entries and their values trace back to patent US9732087B2.

biological target: UniProt:Q9H3N8; assay: Binding assay on recombinant human histamine H4 receptor ([3H]histamine competition, SK-N-MC cell membranes); conditions: membranes harvested with cell harvester; [3H]histamine 10 nM; average of results; read-out: Cell Harvester Ki
Kindly apply the following: fulfilled if Ki is less than 100 nM, not fulfilled in every other case.

[[record]]
molecule = "CC(C)Nc1nccc(N2CC(N)C2)n1"
assayed_target = "UniProt:Q9H3N8"
category_label = "not fulfilled"

[[record]]
molecule = "CNC1CN(c2cnnc(NC3CC3)c2)C1"
assayed_target = "UniProt:Q9H3N8"
category_label = "not fulfilled"

[[record]]
molecule = "CC1(C)C2CCC(CNc3nccc(N4CC[C@@H](N)C4)n3)C1C2 (some centres unmarked)"
assayed_target = "UniProt:Q9H3N8"
category_label = "not fulfilled"

[[record]]
molecule = "CN[C@@H]1CCN(c2ccnc(N[C@H]3C[C@H]4CC[C@]3(C)C4(C)C)c2)C1"
assayed_target = "UniProt:Q9H3N8"
category_label = "fulfilled"

[[record]]
molecule = "CCCCNc1cc(N2CC[C@H](NC)C2)ccn1"
assayed_target = "UniProt:Q9H3N8"
category_label = "not fulfilled"


###

molecular target: human H4 receptor (Homo sapiens (Human)); test: Binding assay on recombinant human histamine H4 receptor ([3H]histamine competition, SK-N-MC cell membranes); conditions: membranes harvested with cell harvester; [3H]histamine 10 nM; average of results; read-out: Cell Harvester Ki
pKi: −log10 of the molar value.
In this section we review reported pKi values for a set of compounds.
Quantity Kind: pKi

[[record]]
compound = "CC1C(Nc2cc(N3C[C@H]4CCN[C@H]4C3)ccn2)C[C@H]2C[C@@H]1C2(C)C (stereo partly shown) [Example 287]"
relation_qualifier = "="
test_result = 7.00

[[record]]
compound = "CN[C@@H]1CCN(c2ccnc(NCCOC)n2)C1 [Example 82]"
relation_qualifier = "="
test_result = 7.34

[[record]]
compound = "CCCCNc1cc(N2CCNCC2)cnn1 [Example 356]"
relation_qualifier = "="
test_result = 5.80

[[record]]
compound = "CC(C)(CO)CNc1cc(N2CCNCC2)cnn1 [Example 366]"
relation_qualifier = "<"
test_result = 5.00

[[record]]
compound = "N[C@H]1CCN(c2ccnc(NCc3ccccc3)c2)C1 [Example 267]"
relation_qualifier = "="
test_result = 5.82

[[record]]
compound = "c1cc(N2CCNCC2)nc(NC2CC3CCC2C3)n1 (stereo not shown) [Example 133]"
relation_qualifier = "="
test_result = 6.89

[[record]]
compound = "COCCNc1cc(N2CC[C@@H](N)C2)ccn1 [Example 289]"
relation_qualifier = "="
test_result = 6.39

[[record]]
compound = "OCCCNc1cc(N2CCNCC2)cnn1 [Example 314]"
relation_qualifier = "<"
test_result = 5.00

[[record]]
compound = "CN1CCN(c2ccnc(NC[C@]34C[C@H]5C[C@H](C[C@H](C5)C3)C4)c2)CC1 [Example 255]"
relation_qualifier = "="
test_result = 5.71

[[record]]
compound = "N[C@@H]1CCN(c2cnnc(NCCCO)c2)C1 [Example 313]"
relation_qualifier = "<"
test_result = 5.00


###

target: human H4 receptor (Homo sapiens (Human), UniProt Q9H3N8); assay: Binding assay on recombinant human histamine H4 receptor ([3H]histamine competition, SK-N-MC cell membranes); conditions: membranes harvested with cell harvester; [3H]histamine 10 nM; average of results; read-out: Cell Harvester Ki
Sequence (Q9H3N8 whole entry): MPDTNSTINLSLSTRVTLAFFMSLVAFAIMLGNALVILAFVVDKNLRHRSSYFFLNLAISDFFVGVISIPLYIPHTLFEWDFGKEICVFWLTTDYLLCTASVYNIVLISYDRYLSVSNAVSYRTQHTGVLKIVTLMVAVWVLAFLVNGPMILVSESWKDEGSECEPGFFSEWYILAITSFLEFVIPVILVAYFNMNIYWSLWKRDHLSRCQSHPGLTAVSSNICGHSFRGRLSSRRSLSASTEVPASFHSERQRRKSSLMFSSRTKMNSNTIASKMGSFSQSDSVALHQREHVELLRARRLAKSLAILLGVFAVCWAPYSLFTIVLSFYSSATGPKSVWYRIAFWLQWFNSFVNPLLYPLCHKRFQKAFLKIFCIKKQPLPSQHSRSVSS
pKi: −log10 of the molar value.
In this section we review reported pKi values for a set of compounds.
Quantity Kind: pKi

[[record]]
compound = "CN[C@@H]1CCN(c2ccnc(NCC3CCCO3)n2)C1 (some centres unmarked) [Example 81]"
quantity_kind = "pKi"
relation_qualifier = "="
test_result = 7.61

[[record]]
compound = "CN[C@H]1CCN(c2cnnc(N[C@H](C)C3CCCCC3)c2)C1 [Example 373]"
quantity_kind = "pKi"
relation_qualifier = "="
test_result = 6.84

[[record]]
compound = "CN[C@@H]1CCN(c2ccnc(NC3C4CC5CC(C4)CC3C5)c2)C1 (some centres unmarked) [Example 208]"
quantity_kind = "pKi"
relation_qualifier = "="
test_result = 9.07

[[record]]
compound = "CN1CCN(c2ccnc(NCC3CCCC3)c2)CC1 [Example 236]"
quantity_kind = "pKi"
relation_qualifier = "="
test_result = 7.32

[[record]]
compound = "CN[C@H]1CCN(c2cnnc(NCc3ccc(F)cc3)c2)C1 [Example 399]"
quantity_kind = "pKi"
relation_qualifier = "="
test_result = 5.40

[[record]]
compound = "CN[C@@H]1CCN(c2cnnc(NCCCC(F)(F)F)c2)C1 [Example 386]"
quantity_kind = "pKi"
relation_qualifier = "="
test_result = 6.55

[[record]]
compound = "CSCCNc1nccc(N2CCN(C)CC2)n1 [Example 164]"
quantity_kind = "pKi"
relation_qualifier = "="
test_result = 7.44

[[record]]
compound = "CN[C@@H]1CCN(c2cnnc(NCC3CCCCC3)c2)C1 [Example 391]"
quantity_kind = "pKi"
relation_qualifier = "="
test_result = 7.44

[[record]]
compound = "COCCNc1cc(N2CC[C@H](N)C2)ccn1 [Example 264]"
quantity_kind = "pKi"
relation_qualifier = "<"
test_result = 5.00

[[record]]
compound = "CN[C@@H]1CCN(c2ccnc(NC3CC4CCC3C4)n2)C1 (some centres unmarked) [Example 74]"
quantity_kind = "pKi"
relation_qualifier = "="
test_result = 8.92

[[record]]
compound = "CN1CCN(c2ccnc(NC3CCOCC3)c2)CC1 [Example 223]"
quantity_kind = "pKi"
relation_qualifier = "="
test_result = 6.14

[[record]]
compound = "CN[C@H]1CCN(c2ccnc(NCc3ccc(F)cc3)c2)C1 [Example 246]"
quantity_kind = "pKi"
relation_qualifier = "="
test_result = 6.40

[[record]]
compound = "C[C@@H](Nc1nccc(N2C[C@H]3CCN[C@H]3C2)n1)C1CCCCC1 [Example 115]"
quantity_kind = "pKi"
relation_qualifier = "="
test_result = 6.03

[[record]]
compound = "CNC1CN(c2cnnc(NCC3CC3)c2)C1 [Example 327]"
quantity_kind = "pKi"
relation_qualifier = "="
test_result = 7.02

[[record]]
compound = "c1ccc(CNc2cc(N3CCNCC3)ccn2)nc1 [Example 260]"
quantity_kind = "pKi"
relation_qualifier = "<"
test_result = 5.00

[[record]]
compound = "CN[C@H]1CCN(c2ccnc(NC[C@H]3CC[C@H]4C[C@@H]3C4(C)C)c2)C1 [Example 224]"
quantity_kind = "pKi"
relation_qualifier = "="
test_result = 6.62

[[record]]
compound = "NC1CCN(c2cnnc(NCCCO)c2)C1 (stereo in doubt) [Example 338]"
quantity_kind = "pKi"
relation_qualifier = "<"
test_result = 5.00

[[record]]
compound = "CNC1CN(c2ccnc(NCC(C)C)n2)C1 [Example 171]"
quantity_kind = "pKi"
relation_qualifier = "="
test_result = 8.41

[[record]]
compound = "CC(C)(CO)CNc1nccc(N2CC[C@H](N)C2)n1 [Example 130]"
quantity_kind = "pKi"
relation_qualifier = "="
test_result = 6.07

[[record]]
compound = "c1ccc(CNc2nccc(N3CCNCC3)n2)nc1 [Example 157]"
quantity_kind = "pKi"
relation_qualifier = "="
test_result = 5.67


###

In this section we review reported Ki values for a set of compounds.
biological target: human H4 receptor (Homo sapiens (Human), UniProt Q9H3N8); experiment: Binding assay on recombinant human histamine H4 receptor ([3H]histamine competition, SK-N-MC cell membranes); conditions: membranes harvested with cell harvester; [3H]histamine 10 nM; average of results; read-out: Cell Harvester Ki
Quantity Kind: Ki (nM)

[[record]]
compound = "CN[C@H]1CCN(c2cnnc(NC3CCCC3)c2)C1"
assayed_target = "human H4 receptor (Homo sapiens (Human), UniProt Q9H3N8)"
unit_descriptor = "nM"
test_result = 54.3

[[record]]
compound = "CNC1CN(c2ccnc(NC3CCCC3)n2)C1"
assayed_target = "human H4 receptor (Homo sapiens (Human), UniProt Q9H3N8)"
unit_descriptor = "nM"
test_result = 13.7

[[record]]
compound = "CN[C@@H]1CCN(c2ccnc(NCC3CCCC3)n2)C1"
assayed_target = "human H4 receptor (Homo sapiens (Human), UniProt Q9H3N8)"
unit_descriptor = "nM"
test_result = 1.57

[[record]]
compound = "CN[C@@H]1CCN(c2cnnc(NCC3CC4CCC3C4)c2)C1 (some centres unmarked)"
assayed_target = "human H4 receptor (Homo sapiens (Human), UniProt Q9H3N8)"
unit_descriptor = "nM"
test_result = 66.8

[[record]]
compound = "CN(CCN)c1cnnc(NC2CC3CCC2C3)c1 (centres unmarked)"
assayed_target = "human H4 receptor (Homo sapiens (Human), UniProt Q9H3N8)"
unit_descriptor = "nM"
test_result = 98.1

